Field: KINOMEscan: RIPK1. Provide a value for each of the compounds that follow.
# ASSAYED_SYSTEM: panel of 442 kinases (Homo sapiens, UniProt Q13546)
# Construct: purchased KINOMEscan
# Sequence (Q13546 whole entry): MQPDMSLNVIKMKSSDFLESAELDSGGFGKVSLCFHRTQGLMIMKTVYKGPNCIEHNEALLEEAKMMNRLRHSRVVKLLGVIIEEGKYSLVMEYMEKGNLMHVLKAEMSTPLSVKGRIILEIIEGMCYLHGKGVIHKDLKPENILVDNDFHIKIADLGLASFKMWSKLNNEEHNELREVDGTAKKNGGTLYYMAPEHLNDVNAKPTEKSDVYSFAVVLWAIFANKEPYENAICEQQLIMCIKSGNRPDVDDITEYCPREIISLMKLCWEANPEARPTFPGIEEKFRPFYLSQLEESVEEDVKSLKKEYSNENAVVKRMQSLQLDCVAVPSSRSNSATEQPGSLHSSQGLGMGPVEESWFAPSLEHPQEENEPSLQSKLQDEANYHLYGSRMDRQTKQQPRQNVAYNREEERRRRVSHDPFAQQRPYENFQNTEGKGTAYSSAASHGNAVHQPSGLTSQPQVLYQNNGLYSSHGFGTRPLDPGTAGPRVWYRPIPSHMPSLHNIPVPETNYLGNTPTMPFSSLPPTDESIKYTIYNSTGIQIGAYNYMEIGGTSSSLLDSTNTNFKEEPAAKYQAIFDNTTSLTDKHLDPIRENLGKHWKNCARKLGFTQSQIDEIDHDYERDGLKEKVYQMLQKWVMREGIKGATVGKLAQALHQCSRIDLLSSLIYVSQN
# Assay type: binding
# ASSAY_SETUP: Compound Concentration 10 µM
One number for each entry.

- COc1cc(C(=O)N2CCC(N3CCN(C)CC3)CC2)ccc1Nc1ncc2c(n1)N1CCc3cccc(c31)C(=O)N2C: 76
- COc1cc(C(=O)N2CCC(N3CCN(C)CC3)CC2)ccc1Nc1ncc2c(n1)N(C)c1ccccc1C(=O)N2C: 99
- COc1cc(C(=O)N2CCC(N3CCN(C)CC3)CC2)ccc1Nc1ncc2c(n1)N(C1CCCC1)c1ccccc1C(=O)N2C: 100

Turning now to a further compound:
The recorded KINOMEscan: RIPK1 for entry CCOc1cc(C(=O)N2CCC(N3CCN(C)CC3)CC2)ccc1Nc1ncc2c(n1)N(C1CCCC1)c1ccccc1C(=O)N2C equals 100

---

# ASSAYED_SYSTEM: panel of 442 kinases (Homo sapiens, UniProt O14976)
# Construct: purchased KINOMEscan
# Sequence (O14976 whole entry): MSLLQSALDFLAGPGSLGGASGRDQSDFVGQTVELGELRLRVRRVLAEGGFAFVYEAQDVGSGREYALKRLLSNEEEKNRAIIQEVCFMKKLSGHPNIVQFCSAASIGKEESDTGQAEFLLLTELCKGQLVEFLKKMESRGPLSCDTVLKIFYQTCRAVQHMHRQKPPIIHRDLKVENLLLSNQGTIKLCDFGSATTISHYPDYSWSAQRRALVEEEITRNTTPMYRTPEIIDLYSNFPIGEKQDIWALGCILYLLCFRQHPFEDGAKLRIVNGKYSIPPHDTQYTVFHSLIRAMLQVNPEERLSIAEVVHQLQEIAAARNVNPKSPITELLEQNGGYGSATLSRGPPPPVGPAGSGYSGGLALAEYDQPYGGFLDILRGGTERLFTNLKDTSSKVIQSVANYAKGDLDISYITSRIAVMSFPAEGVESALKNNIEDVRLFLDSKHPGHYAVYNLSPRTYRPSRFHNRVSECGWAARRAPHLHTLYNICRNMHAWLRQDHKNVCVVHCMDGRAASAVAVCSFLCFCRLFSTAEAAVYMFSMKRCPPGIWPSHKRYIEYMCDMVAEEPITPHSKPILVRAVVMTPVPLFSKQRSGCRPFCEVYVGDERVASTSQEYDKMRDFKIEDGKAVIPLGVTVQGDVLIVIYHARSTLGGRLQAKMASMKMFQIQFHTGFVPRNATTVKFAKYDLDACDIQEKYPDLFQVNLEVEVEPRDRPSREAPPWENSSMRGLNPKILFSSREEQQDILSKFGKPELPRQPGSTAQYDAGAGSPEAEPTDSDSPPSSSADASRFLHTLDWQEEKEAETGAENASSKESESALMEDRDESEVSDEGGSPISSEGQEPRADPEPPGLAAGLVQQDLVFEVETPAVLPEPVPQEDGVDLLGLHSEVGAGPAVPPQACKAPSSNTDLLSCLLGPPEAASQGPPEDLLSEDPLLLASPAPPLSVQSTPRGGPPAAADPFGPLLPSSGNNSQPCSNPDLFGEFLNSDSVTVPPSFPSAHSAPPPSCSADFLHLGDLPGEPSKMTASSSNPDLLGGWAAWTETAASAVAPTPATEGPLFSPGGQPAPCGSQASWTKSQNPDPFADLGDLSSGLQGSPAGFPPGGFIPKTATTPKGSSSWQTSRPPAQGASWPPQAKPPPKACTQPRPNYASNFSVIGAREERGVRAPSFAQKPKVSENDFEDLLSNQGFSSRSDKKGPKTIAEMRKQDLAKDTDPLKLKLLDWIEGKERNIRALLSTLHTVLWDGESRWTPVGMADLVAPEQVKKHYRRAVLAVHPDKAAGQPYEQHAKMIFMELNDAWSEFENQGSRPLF
# Assay type: binding
# ASSAY_SETUP: Compound Concentration 10 µM
REPORTED_METRIC: KINOMEscan: GAK
One number for each entry.

Solved entries:
* COc1cc(C(=O)N2CCC(N3CCN(C)CC3)CC2)ccc1Nc1ncc2c(n1)N(C1CCCC1)c1ccccc1C(=O)N2C | 82
* CCOc1cc(C(=O)N2CCC(N3CCN(C)CC3)CC2)ccc1Nc1ncc2c(n1)N(C1CCCC1)c1ccccc1C(=O)N2C | 100
* COc1cc(C(=O)N2CCC(N3CCN(C)CC3)CC2)ccc1Nc1ncc2c(n1)N(C)c1ccccc1C(=O)N2C | 16

Turning now to a further molecule:
The recorded KINOMEscan: GAK for entry COc1cc(C(=O)N2CCC(N3CCN(C)CC3)CC2)ccc1Nc1ncc2c(n1)N1CCc3cccc(c31)C(=O)N2C equals 19

---

Field: KINOMEscan: DMPK. Provide a value for each of the molecules that follow.
# ASSAYED_SYSTEM: panel of 442 kinases (Homo sapiens, UniProt Q09013)
# Construct: purchased KINOMEscan
# Sequence (Q09013 whole entry): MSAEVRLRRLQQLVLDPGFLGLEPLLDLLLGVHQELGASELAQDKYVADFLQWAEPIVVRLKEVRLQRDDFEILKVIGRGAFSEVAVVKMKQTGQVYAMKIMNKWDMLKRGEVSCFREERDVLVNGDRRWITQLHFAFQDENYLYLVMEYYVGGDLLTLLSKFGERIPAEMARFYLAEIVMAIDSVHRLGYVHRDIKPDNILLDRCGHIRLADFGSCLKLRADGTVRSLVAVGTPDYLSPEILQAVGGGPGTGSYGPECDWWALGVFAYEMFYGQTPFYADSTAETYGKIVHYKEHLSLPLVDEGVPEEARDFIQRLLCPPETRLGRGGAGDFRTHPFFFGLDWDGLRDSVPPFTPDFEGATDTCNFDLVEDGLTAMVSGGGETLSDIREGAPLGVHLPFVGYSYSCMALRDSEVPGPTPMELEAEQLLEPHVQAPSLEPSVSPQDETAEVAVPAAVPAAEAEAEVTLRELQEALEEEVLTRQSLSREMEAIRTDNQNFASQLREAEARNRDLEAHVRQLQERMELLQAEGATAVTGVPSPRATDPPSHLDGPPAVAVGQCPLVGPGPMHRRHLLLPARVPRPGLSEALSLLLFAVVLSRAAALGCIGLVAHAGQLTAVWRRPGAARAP
# Assay type: binding
# ASSAY_SETUP: Compound Concentration 10 µM
Answers are plain numbers.

* CCOc1cc(C(=O)N2CCC(N3CCN(C)CC3)CC2)ccc1Nc1ncc2c(n1)N(C1CCCC1)c1ccccc1C(=O)N2C [Compound 26] | 100

Hi team, please reply with KINOMEscan: DMPK for each item in this list.
1. COc1cc(C(=O)N2CCC(N3CCN(C)CC3)CC2)ccc1Nc1ncc2c(n1)N1CCc3cccc(c31)C(=O)N2C [Compound 24]
2. COc1cc(C(=O)N2CCC(N3CCN(C)CC3)CC2)ccc1Nc1ncc2c(n1)N(C)c1ccccc1C(=O)N2C [15 (LRRK2-IN-1)]
3. COc1cc(C(=O)N2CCC(N3CCN(C)CC3)CC2)ccc1Nc1ncc2c(n1)N(C1CCCC1)c1ccccc1C(=O)N2C [Compound 25]

[85, 100, 96]

---

Field: KINOMEscan: MAP4K5. Provide a value for each of the compounds that follow.
# ASSAYED_SYSTEM: panel of 442 kinases (Homo sapiens, UniProt Q9Y4K4)
# Construct: purchased KINOMEscan
# Sequence (Q9Y4K4 whole entry): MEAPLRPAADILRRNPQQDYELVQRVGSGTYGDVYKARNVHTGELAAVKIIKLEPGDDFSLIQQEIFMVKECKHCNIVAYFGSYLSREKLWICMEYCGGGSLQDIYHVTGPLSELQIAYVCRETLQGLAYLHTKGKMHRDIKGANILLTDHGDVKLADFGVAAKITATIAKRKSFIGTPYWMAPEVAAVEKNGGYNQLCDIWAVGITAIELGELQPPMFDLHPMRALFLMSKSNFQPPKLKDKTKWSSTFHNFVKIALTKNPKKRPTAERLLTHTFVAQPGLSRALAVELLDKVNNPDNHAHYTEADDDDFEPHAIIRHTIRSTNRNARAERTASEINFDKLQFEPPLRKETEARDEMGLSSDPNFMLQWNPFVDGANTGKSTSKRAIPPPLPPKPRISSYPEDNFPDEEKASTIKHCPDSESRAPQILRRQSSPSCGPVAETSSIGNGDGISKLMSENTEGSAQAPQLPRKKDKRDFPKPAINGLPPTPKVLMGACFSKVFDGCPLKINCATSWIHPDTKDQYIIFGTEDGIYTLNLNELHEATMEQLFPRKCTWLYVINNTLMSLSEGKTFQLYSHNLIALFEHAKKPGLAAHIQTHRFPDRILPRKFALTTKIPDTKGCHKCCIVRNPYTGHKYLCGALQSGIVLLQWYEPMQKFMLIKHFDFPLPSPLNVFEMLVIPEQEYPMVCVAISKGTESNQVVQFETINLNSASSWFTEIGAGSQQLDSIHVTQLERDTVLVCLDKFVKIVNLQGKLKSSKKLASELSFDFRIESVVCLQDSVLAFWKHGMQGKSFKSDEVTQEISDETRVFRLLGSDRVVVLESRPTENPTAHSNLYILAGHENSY
# Assay type: binding
# ASSAY_SETUP: Compound Concentration 10 µM

Solved entries:
• COc1cc(C(=O)N2CCC(N3CCN(C)CC3)CC2)ccc1Nc1ncc2c(n1)N(C1CCCC1)c1ccccc1C(=O)N2C [Compound 25] = 96
• COc1cc(C(=O)N2CCC(N3CCN(C)CC3)CC2)ccc1Nc1ncc2c(n1)N1CCc3cccc(c31)C(=O)N2C [Compound 24] = 72
• COc1cc(C(=O)N2CCC(N3CCN(C)CC3)CC2)ccc1Nc1ncc2c(n1)N(C)c1ccccc1C(=O)N2C [15 (LRRK2-IN-1)] = 100

Turning now to a further compound:
The recorded KINOMEscan: MAP4K5 for entry CCOc1cc(C(=O)N2CCC(N3CCN(C)CC3)CC2)ccc1Nc1ncc2c(n1)N(C1CCCC1)c1ccccc1C(=O)N2C [Compound 26] equals 95

All figures here come from paper PMC3914206.
